System: human sebaceous glands
Assay: Resazurin viability test of micro-dissected human sebaceous glands, day 6 versus day 1
Type: cell-based
Settings: Example 7; 0.05 ppm
Form field: Viability (one value per entry).
# number only, unit % dropped from output

{"item.smiles": "OC[C@@H](O)[C@H](O)CO", "assayed.target": "human sebaceous glands", "Viability (%)": 84}

Ask | Dear colleague, I am looking for the recorded Viability of the following molecule: O[C@H]1[C@H](O)[C@@H](O)[C@H](O)[C@@H](O)[C@H]1O
Reply | 91

Ask | Fill blank: measured Viability of the molecule OC[C@@H](O)[C@@H](O[C@@H]1O[C@H](CO)[C@H](O)[C@H](O)[C@H]1O)[C@H](O)[C@@H](O)CO is ____.
Reply | 99

Ask | Returns the measured Viability for the input molecule. Input: OC[C@@H](O)[C@@H](O[C@H]1O[C@H](CO)[C@@H](O)[C@H](O)[C@H]1O)[C@H](O)[C@@H](O)CO
Reply | 79

###

Test system: human sebaceous glands
Assay: Resazurin viability test of micro-dissected human sebaceous glands, day 6 versus day 1
Type: cell-based
Settings: Example 7; 0.5 ppm
Viability overview
Record the value in %, omitting the unit from your answer.

{"item.smiles": "O[C@H]1[C@H](O)[C@@H](O)[C@H](O)[C@@H](O)[C@H]1O", "assayed.target": "human sebaceous glands", "numeric.readout": 97}
{"item.smiles": "OC[C@@H](O)[C@@H](O[C@@H]1O[C@H](CO)[C@H](O)[C@H](O)[C@H]1O)[C@H](O)[C@@H](O)CO", "assayed.target": "human sebaceous glands", "numeric.readout": 100}

Ask | Record lookup: for human sebaceous glands, what Viability belongs to OC[C@@H](O)[C@@H](O[C@H]1O[C@H](CO)[C@@H](O)[C@H](O)[C@H]1O)[C@H](O)[C@@H](O)CO ?
Reply | 80

Ask | Item OC[C@@H](O)[C@H](O)CO with human sebaceous glands - Viability?
Reply | 82
